Measured target: Huntingtin (Homo sapiens) (UniProt P42858)
Sequence (P42858 whole entry, looked up, stated change not applied): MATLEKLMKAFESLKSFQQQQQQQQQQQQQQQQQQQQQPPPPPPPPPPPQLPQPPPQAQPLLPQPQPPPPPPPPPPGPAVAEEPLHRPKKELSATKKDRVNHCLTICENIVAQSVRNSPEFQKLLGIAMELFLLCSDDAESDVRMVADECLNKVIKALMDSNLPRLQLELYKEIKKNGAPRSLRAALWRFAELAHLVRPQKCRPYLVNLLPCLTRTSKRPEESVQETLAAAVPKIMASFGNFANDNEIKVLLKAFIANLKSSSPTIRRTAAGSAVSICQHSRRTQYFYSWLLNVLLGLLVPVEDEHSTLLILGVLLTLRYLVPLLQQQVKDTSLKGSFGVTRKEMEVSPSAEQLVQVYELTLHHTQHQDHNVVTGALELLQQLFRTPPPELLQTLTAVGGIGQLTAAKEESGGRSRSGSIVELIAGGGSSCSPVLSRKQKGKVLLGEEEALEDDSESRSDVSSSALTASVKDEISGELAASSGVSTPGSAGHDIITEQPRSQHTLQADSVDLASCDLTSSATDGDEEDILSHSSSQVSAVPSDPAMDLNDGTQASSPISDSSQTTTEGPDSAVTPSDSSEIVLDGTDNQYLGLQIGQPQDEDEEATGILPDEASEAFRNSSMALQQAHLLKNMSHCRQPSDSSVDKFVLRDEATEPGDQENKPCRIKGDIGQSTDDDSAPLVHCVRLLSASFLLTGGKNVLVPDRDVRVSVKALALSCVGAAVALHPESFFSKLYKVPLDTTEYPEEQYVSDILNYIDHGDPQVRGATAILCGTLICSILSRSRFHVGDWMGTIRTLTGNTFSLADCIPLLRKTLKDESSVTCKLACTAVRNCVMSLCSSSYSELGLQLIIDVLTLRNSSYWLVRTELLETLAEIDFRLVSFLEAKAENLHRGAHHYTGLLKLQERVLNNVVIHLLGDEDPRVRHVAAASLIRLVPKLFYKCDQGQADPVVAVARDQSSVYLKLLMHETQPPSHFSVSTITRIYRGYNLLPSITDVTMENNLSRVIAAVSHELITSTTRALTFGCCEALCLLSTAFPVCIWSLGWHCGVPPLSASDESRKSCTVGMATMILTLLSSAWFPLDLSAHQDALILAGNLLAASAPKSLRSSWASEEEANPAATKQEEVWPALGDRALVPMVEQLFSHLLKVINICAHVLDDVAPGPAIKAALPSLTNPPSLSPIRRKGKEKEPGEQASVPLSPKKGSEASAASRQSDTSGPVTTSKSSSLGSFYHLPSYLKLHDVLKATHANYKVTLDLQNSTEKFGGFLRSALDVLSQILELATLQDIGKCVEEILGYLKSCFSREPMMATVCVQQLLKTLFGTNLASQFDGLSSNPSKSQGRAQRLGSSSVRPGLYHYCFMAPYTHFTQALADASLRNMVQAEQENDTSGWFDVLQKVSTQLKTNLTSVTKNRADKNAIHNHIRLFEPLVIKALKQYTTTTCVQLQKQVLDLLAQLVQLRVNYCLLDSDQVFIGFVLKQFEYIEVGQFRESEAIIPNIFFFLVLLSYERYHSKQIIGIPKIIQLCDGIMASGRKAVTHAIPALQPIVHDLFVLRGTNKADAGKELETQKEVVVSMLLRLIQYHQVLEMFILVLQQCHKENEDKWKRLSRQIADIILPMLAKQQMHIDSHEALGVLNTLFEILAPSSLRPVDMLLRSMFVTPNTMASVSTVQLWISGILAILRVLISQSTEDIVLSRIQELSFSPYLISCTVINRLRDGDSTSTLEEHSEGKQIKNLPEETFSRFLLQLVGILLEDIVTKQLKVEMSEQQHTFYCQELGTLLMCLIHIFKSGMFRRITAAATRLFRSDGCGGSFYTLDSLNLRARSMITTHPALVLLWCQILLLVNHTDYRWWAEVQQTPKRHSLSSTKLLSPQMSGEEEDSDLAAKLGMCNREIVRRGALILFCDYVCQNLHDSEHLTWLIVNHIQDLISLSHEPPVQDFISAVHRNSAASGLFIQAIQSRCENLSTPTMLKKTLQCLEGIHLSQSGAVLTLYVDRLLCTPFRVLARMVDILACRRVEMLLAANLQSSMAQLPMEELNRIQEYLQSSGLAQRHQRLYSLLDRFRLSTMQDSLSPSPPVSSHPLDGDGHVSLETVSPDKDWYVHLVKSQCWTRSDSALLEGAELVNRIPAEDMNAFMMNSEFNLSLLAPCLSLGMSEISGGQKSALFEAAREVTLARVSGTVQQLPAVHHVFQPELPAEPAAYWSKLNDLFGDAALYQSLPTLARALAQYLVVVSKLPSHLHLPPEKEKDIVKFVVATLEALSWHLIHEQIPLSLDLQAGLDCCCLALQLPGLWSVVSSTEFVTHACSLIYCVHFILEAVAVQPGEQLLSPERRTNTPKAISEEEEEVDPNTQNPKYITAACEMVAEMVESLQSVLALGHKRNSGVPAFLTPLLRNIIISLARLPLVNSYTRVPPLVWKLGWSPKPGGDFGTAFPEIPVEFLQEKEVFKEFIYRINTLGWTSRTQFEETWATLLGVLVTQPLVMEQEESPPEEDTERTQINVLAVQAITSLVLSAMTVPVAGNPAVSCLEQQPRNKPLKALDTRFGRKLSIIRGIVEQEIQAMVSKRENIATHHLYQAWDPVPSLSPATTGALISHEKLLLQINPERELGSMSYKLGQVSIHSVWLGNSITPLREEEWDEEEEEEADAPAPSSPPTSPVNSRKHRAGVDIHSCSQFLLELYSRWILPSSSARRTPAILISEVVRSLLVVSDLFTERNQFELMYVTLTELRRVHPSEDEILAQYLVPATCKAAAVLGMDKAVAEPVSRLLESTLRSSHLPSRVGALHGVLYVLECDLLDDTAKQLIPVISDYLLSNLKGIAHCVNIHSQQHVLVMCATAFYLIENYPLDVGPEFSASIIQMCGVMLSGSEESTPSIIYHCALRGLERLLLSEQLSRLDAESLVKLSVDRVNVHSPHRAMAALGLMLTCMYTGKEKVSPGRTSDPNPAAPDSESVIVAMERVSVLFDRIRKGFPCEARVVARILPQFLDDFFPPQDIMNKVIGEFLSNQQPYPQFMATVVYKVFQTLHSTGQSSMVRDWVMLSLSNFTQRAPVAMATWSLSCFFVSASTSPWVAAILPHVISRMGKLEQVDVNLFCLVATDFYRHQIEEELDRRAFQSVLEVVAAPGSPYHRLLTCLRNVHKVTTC
Method notes: mutant huntingtin-calmodulin interaction inhibitors – biochemical, AlphaScreen, primary screen (AID 1671202);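 note: 0% = both proteins with DMSO and 100% = one protein alone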
Particulars: AlphaScreen His-mHTT/GST-CaM binding, luminescence; at 15 µM, stronger effect = higher value
Among all 190,000 compounds or so, about 6,900 (3.6%) were called active. The full list was thinned out, with actives kept by preference.
Each entry below carries its reported inhibition.

Some entries whose results are on file:
{"columns": ["Compound", "inhibition"],
 "data": [
  ["CC(=O)c1ccc(OCC(O)CN2CCN(c3ccccc3)CC2)cc1 (stereo not drawn)", "9.71% (inactive)"],
  ["N#CC1=C(N)Oc2ccc3ncccc3c2C1c1ccccc1F (stereo not drawn)", "49% (inactive)"]
]}

Which inhibition is reported for this compound? Clc1cccc(N2CCN(Cc3cccnc3)CC2)c1
1% (inactive)

Which inhibition is reported for this compound? O=C(Nc1ccc(N2CCN(Cc3ccc(F)cc3)CC2)nc1)C1CC1
5% (inactive)

Which inhibition is reported for this compound? CCCNc1cc(N2CCCC(CCC(=O)Nc3ccc4c(c3)OCCO4)C2)ncn1 (stereo not drawn)
62.5% (active)

Which inhibition is reported for this compound? O=C(c1ccc2nc3ccc(Cl)cc3c(=O)n2c1)N1CCN(c2cccc(Cl)c2)CC1
6% (inactive)

Which inhibition is reported for this compound? O=C(c1ccc([N+](=O)[O-])cc1)N1CCN(c2cccc(Cl)c2)CC1
13.1% (inactive)

Which inhibition is reported for this compound? CCN(CC)CC(O)COc1ccc(C23CC4CC(CC(C4)C2)C3)cc1 (stereo not drawn)
98.6% (active)

Which inhibition is reported for this compound? CN(C)c1ncccc1NC(=O)c1ccc(C#N)cc1
4.1% (inactive)

Which inhibition is reported for this compound? COc1ccc(N2CCN(CC(O)COC34CC5CC(CC(C5)C3)C4)CC2)cc1 (stereo not drawn)
27.7% (inactive)

Which inhibition is reported for this compound? CCCCC(=O)Nc1c2c(nn1-c1ccc([N+](=O)[O-])cc1)CS(=O)(=O)C2
-1% (inactive)

Which inhibition is reported for this compound? N#CC1=C(N)Oc2c(c(=O)[nH]c3ccccc23)C1c1cccs1 (stereo not drawn)
8% (inactive)

Which inhibition is reported for this compound? Cc1cccc(NC(=O)C2CCN(C(=O)c3ccc(F)cc3)CC2)c1
-0.6% (inactive)

Which inhibition is reported for this compound? CCOC(=O)C1CCCN(C(=O)c2nn(-c3ccc(F)cc3)c(=O)cc2OC)C1 (stereo not drawn)
-5.9% (inactive)

Which inhibition is reported for this compound? Cc1ccc(OCC(O)CNC2CCCCC2)cc1 (stereo not drawn)
-7.1% (inactive)

Which inhibition is reported for this compound? CCOC(=O)Nc1ccc2c(c1)CN(C(=O)c1cccs1)CC2
2.5% (inactive)

Which inhibition is reported for this compound? CC(=O)Nc1ccc(C(=O)N2CCN(c3cccc(Cl)c3)CC2)cc1
83.1% (active)

Which inhibition is reported for this compound? O=C(NCc1[nH]nc2ccccc12)c1ccc(Br)o1
-1.8% (inactive)

Which inhibition is reported for this compound? CCN1CCN(CC(O)COc2ccc(C34CC5CC(CC(C5)C3)C4)cc2)CC1 (stereo not drawn)
50.3% (active)

Which inhibition is reported for this compound? COc1ccc(C2C(C#N)=C(N)N(c3ccccc3[N+](=O)[O-])C3=C2C(=O)CCC3)cc1 (stereo not drawn)
21% (inactive)
